- Tested system: DGKζ (Homo sapiens (Human), UniProt Q13574)
- Sequence (Q13574 other isoform, or with tags, fused parts or gaps): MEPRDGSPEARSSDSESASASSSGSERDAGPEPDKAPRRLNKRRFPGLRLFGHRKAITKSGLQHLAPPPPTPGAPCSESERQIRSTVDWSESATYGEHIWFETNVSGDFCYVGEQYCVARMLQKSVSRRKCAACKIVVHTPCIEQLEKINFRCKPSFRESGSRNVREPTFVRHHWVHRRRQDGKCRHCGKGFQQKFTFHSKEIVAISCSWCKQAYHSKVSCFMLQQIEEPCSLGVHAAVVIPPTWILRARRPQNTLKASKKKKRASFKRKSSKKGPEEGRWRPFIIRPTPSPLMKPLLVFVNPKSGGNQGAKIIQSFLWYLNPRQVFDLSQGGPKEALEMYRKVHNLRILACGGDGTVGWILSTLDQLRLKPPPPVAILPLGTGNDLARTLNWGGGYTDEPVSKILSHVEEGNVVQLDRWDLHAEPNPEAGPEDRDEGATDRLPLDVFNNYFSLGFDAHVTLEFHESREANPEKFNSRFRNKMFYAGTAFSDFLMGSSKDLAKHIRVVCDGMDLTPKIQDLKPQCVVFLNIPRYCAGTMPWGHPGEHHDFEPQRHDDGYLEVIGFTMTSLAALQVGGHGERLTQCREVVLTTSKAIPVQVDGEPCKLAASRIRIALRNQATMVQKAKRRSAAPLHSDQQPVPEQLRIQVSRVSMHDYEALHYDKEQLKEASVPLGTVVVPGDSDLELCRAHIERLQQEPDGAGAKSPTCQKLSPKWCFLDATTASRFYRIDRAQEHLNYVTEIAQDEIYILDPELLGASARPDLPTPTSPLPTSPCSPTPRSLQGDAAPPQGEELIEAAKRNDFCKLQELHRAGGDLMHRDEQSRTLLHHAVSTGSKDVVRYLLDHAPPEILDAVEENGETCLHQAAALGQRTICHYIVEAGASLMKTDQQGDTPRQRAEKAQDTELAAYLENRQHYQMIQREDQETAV
- Method notes: Biochemical DGK IC50 assay, DGKζ ADP-Glo assay
- Run parameters: 0.5 nM enzyme, 140 μM ATP, 80 μM DAG; read-out: DGKζ ADP-Glo assay IC50
pIC50: −log10 of the molar value.
Property label: pIC50

Molecule	Tested system	Property label	Assay value
CC[C@H]1CN(C(C)c2ccc(F)cc2OC)[C@H](CC)CN1c1cc(=O)n(C)c2cn(CC#N)nc12 (single isomer, unassigned) [Compound A71b]	DGKζ (Homo sapiens (Human), UniProt Q13574)	pIC50	6.89

I. CC[C@H]1CN(C(C)c2nc3ccccc3n2CC)[C@H](CC)CN1c1cc(=O)n(C)c2cn(CC#N)nc12 (some centres unmarked) [Compound A144]
II. CC[C@H]1CN(C(C)c2nn(CC)cc2C#N)[C@H](CC)CN1c1cc(=O)n(C)c2cn(CC#N)nc12 (some centres unmarked) [Compound A240]
In: Would you kindly point out which of I and II has the smaller pIC50 figure? Indicate which entry you chose by stating its label.
Out: II
(II: 5.70, I: 7.38)

A. CC#CCn1cc2c(n1)c(N1C[C@@H](CC)N(C(C)c3ccc4nccnc4c3)C[C@@H]1CC)cc(=O)n2C (some centres unmarked) [Compound A23]
B. Cc1nc2ccc(C(C)N3C[C@H](C)N(c4cc(=O)n(C)c5cn(CC#N)nc45)C[C@H]3C)cc2nc1C (some centres unmarked) [Compound A294]
In: // which entry reports the smaller pIC50, A or B ? Write down the label attached to your selection.
Out: B

1. CC(c1ccc2nccnc2c1)N1C[C@H](C)N(c2cc(=O)n(C)c3cn(C4(C#N)CC4)nc23)C[C@H]1C (some centres unmarked) [Compound A16]
2. CC[C@H]1CN(C(C)c2c(F)cncc2F)[C@H](CC)CN1c1cc(=O)n(C)c2cn(CC#N)nc12 (some centres unmarked) [Compound A87]
In: Which item exceeds the other in pIC50, 1 or 2 ? API: response body contains the label of the selected item.
Out: 2
(2: 6.68, 1: 5.38)

a. CC(c1ccc2nccnc2c1)N1C[C@H](C)N(c2cc(=O)n(C)c3cn(C)nc23)C[C@H]1C (some centres unmarked) [Compound A3]
b. CC[C@H]1CN(C(C)c2cccc(NC(C)=O)c2)[C@H](CC)CN1c1cc(=O)n(C)c2cn(CC#N)nc12 (some centres unmarked) [Compound A109]
c. CC(c1ccc(F)cc1C(F)(F)F)N1C[C@H](C)N(c2cc(=O)n(C)c3cn(CC#N)nc23)C[C@H]1C (single isomer, unassigned) [Compound A236b]
In: List items by pIC50 in falling order. Submit the labels in the order that the ranking request calls for.
Out: c, a, b

* * *

- Tested system: UniProt Q13574
- Method notes: Biochemical DGK IC50 assay, DGKζ ADP-Glo assay
- Run parameters: 0.5 nM enzyme, 140 μM ATP, 80 μM DAG; read-out: DGKζ ADP-Glo assay IC50
Property label: IC50 (µM)

Some entries whose results are on file:
Compound	Property label	Assay value
CC(c1ccc2ncc(C3CC3)nc2c1)N1C[C@H](C)N(c2cc(=O)n(C)c3cn(CC#N)nc23)C[C@H]1C (stereo partly drawn) [Compound A310]	IC50	0.127
CC[C@H]1CN(C(C)c2ccc(C(F)(F)F)cc2F)[C@H](CC)CN1c1cc(=O)n(C)c2cn(CC#N)nc12 (stereo partly drawn) [Compound A73]	IC50	0.63
CC(c1ccc2c(n1)OCCO2)N1C[C@H](C)N(c2cc(=O)n(C)c3cn(CC#N)nc23)C[C@H]1C (stereo partly drawn) [Compound A324]	IC50	4.02

1. CC[C@H]1CN(C(C)c2ncc(OC(C)C)cc2F)[C@H](CC)CN1c1cc(=O)n(C)c2cn(CC#N)nc12 (stereo partly drawn) [Compound A387]
2. COc1cnc2cc(C(C)N3C[C@H](C)N(c4cc(=O)n(C)c5cn(CC#N)nc45)C[C@H]3C)ccc2n1 (stereo partly drawn) [Compound A283]
3. CC[C@H]1CN(C(C)c2ccc3nccnc3c2)[C@H](CC)CN1c1cc(=O)n(CC(F)F)c2cn(CC#N)nc12 (single isomer, unassigned) [Compound A139a]
In: Sort low-to-high on IC50, please. # list labels per requested ordering
Out: 3, 2, 1
(3: 0.112 µM, 2: 0.881 µM, 1: 4.89 µM)
